assayedSystem: Tyrosine-protein kinase Srms (Homo sapiens) (UniProt Q9H3Y6)
Sequence (Q9H3Y6 whole entry): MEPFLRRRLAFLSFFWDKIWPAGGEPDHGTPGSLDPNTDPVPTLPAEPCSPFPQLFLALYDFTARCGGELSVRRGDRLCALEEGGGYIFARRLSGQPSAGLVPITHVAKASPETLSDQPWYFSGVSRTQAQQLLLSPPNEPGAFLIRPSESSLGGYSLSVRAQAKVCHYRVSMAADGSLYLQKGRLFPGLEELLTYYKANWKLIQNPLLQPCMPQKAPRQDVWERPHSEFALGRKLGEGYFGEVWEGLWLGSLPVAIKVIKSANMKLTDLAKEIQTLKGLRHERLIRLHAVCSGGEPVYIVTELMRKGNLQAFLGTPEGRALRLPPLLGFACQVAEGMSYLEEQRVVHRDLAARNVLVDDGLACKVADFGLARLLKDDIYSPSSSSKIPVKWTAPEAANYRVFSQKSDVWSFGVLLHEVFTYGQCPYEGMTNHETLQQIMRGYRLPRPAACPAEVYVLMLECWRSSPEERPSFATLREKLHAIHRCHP
particulars: at 0.1 µM
compounds and their reported inhibition
Give the value, in units of %, as a plain number.

Consider the reported inhibition for these compounds:
chemSmiles: CCn1c(-c2nonc2N)nc2c(C#CC(C)(C)O)nc(O[C@@H](CN)c3ccccc3)cc21
assayedSystem: Tyrosine-protein kinase Srms (Homo sapiens) (UniProt Q9H3Y6)
inhibition [%]: 4.6

chemSmiles: Fc1ccc(-c2ncn(C3CCNCC3)c2-c2ccnc(Oc3ccccc3)n2)cc1
assayedSystem: Tyrosine-protein kinase Srms (Homo sapiens) (UniProt Q9H3Y6)
inhibition [%]: -0.96

chemSmiles: COc1cc2c(cc1Nc1nc(Nc3ccsc3C(N)=O)c3cc[nH]c3n1)N(C(=O)CN(C)C)CCC2
assayedSystem: Tyrosine-protein kinase Srms (Homo sapiens) (UniProt Q9H3Y6)
inhibition [%]: 5.79

chemSmiles: CCn1c(-c2nonc2N)nc2c(C#CC(C)(C)O)ncc(OC[C@@H]3CCCN3)c21
assayedSystem: Tyrosine-protein kinase Srms (Homo sapiens) (UniProt Q9H3Y6);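 further: reported value is a mean of the inhibition readings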
inhibition [%]: 1.63

Continue with the compound presented below.
Which measured inhibition value corresponds to NC(=O)c1sc(-n2cnc3cc(C(F)(F)F)ccc32)cc1OCc1ccccc1Br ?
0.27

* * *

compounds and their reported inhibition
assayedSystem: Serine/threonine-protein kinase Sgk3 (Homo sapiens) (UniProt Q96BR1);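 further: each value is a mean of replicate inhibition readings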
Sequence (Q96BR1 whole entry): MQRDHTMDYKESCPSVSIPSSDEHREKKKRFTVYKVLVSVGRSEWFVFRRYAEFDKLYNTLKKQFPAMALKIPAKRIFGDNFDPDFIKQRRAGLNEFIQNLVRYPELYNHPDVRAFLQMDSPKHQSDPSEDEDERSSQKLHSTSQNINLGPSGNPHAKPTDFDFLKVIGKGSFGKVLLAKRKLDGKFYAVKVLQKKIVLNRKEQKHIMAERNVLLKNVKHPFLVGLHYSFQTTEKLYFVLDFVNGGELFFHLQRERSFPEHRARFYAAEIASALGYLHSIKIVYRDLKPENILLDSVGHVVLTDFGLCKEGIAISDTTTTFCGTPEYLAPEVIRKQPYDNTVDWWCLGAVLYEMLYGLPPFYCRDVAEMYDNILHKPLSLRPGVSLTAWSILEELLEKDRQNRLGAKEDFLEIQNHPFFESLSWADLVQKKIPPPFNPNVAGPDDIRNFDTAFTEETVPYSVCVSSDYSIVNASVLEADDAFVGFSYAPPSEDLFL
particulars: at 1 µM
Give the value, in units of %, as a plain number.

Which measured inhibition value corresponds to CCn1c(-c2nonc2N)nc2c(C#CC(C)(C)O)ncc(OC[C@@H]3CCCN3)c21 ?
47.4

What do you have for COc1cccc(-n2ncc3c(N/N=C/c4ccncc4)ncnc32)c1 ?
6.6

What do you have for COc1cccc(COc2cc(-n3cnc4ccccc43)sc2C(N)=O)c1 ?
-0.21

What do you have for NC(=O)c1sc(-n2cnc3cc(C(F)(F)F)ccc32)cc1OCc1ccccc1Br ?
4.18

What do you have for COc1cc2c(cc1Nc1nc(Nc3ccsc3C(N)=O)c3cc[nH]c3n1)N(C(=O)CN(C)C)CCC2 ?
-0.04

What do you have for Nc1nonc1-c1nc2cnccc2n1C1CCCCC1 ?
41.7

What do you have for Fc1ccc(-c2ncn(C3CCNCC3)c2-c2ccnc(Oc3ccccc3)n2)cc1 ?
2.18

* * *

molecules and their reported inhibition
assayedSystem: SRSF protein kinase 3 (Homo sapiens) (UniProt Q9UPE1);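 further: mean of replicate inhibition values against MSSK1 kinase, profiled within the GSK PKIS kinase inhibitor set screen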
Sequence (Q9UPE1 whole entry): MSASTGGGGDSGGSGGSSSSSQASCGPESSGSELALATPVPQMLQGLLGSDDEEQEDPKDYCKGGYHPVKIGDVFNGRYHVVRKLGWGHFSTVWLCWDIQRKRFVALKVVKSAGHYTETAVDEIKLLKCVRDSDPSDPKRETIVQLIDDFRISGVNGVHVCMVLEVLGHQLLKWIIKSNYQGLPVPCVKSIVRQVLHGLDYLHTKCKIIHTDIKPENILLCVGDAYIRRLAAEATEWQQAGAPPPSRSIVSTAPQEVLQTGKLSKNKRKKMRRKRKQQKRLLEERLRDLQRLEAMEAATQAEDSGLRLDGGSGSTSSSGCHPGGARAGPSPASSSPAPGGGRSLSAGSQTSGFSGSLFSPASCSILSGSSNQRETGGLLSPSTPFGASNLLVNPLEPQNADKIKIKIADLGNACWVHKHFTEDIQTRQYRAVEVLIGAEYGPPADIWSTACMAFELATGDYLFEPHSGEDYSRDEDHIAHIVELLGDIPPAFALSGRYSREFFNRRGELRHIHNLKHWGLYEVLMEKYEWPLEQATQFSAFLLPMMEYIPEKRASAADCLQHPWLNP
particulars: at 0.1 µM
Express the reported value numerically, then name its unit.

chemSmiles: NS(=O)(=O)c1ccc(-c2ccc3c(NC(=O)C4CC4)n[nH]c3c2)cc1
inhibition: 0.31%
--
chemSmiles: Cc1cc(-c2ccco2)cc(C)c1/C=C/c1cncc(-c2nn[nH]n2)c1
inhibition: -1.41%
--
chemSmiles: CCn1c(-c2nonc2N)nc2c(C#CCN)ncc(OCCCN)c21
inhibition: -0.3%

Which measured inhibition value corresponds to COc1cc(C=NNc2ncnc3c2cnn3Cc2ccccc2)ccc1O ?
-1.86%

What do you have for Nc1nonc1-c1nc2cnccc2n1C1CCCCC1 ?
-1.48%

What do you have for CCn1c(-c2nonc2N)nc2c(C#CC(C)(C)O)nc(O[C@@H](CN)c3ccccc3)cc21 ?
-2%

What do you have for CCn1c(-c2nonc2N)nc2c(C#CC(C)(C)O)ncc(OC[C@@H]3CCCN3)c21 ?
-2.22%

What do you have for COc1cccc(COc2cc(-n3cnc4ccccc43)sc2C(N)=O)c1 ?
-1.99%

What do you have for NS(=O)(=O)c1ccc(N/C=C2\C(=O)Nc3ccc4ncsc4c32)cc1 ?
-1.67%

Numbers sourced from ChEMBL document CHEMBL1961873.
